Kindly supply the reported Percent Effect values for the records listed here.
Target: Tyrosyl-tRNA synthetase, putative (Trypanosoma cruzi (strain CL Brener)) (UniProt Q4DSP6)
Sequence (whole entry): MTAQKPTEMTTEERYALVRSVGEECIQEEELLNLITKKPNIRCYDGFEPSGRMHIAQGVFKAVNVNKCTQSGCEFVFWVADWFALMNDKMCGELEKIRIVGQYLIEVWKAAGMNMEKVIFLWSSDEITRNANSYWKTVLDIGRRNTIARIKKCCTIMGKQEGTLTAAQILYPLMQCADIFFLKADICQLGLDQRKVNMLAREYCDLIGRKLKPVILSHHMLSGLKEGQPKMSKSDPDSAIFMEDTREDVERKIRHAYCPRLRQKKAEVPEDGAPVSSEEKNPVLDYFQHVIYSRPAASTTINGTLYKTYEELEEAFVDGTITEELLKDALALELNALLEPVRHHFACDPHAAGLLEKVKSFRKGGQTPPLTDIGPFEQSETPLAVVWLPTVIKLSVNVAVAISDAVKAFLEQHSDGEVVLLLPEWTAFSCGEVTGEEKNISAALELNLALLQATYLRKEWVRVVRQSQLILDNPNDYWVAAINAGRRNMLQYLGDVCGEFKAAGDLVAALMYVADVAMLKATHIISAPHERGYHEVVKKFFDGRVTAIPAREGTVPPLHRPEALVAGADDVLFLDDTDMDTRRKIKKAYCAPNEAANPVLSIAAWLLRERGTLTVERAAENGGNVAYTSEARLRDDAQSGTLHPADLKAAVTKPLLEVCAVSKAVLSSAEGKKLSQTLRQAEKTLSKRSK
Test: Trypanosoma cruzi tyrosyl tRNA synthetase (TcYRS) SOP
Format: functional
Design: scale not given: direction of the effect not stated beside the values
Conditions: 30 µM
Answers are plain numbers, in %.

# map each compound to its Percent Effect
1. Cc1nc(CN2CCc3nn(C(C)C)c(=O)cc3C2)oc1C
2. O=C(C(CNCc1ccsc1)c1ccccc1)N1CCOCC1 (stereo not drawn)
3. Cc1nc(CN2CCCC(N(C)CCc3ccncc3)C2)no1 (stereo not drawn)
4. Cc1occc1C(=O)N1CCC2(CCCN(CC3CCC3)C2=O)C1 (stereo not drawn)
5. O=C(Nc1cc(C(F)(F)F)c[nH]c1=O)N1CCCSCC1

Reply:
1. -8.64
2. 1.24
3. 13.4
4. 10.3
5. 12.2

Give Percent Effect for all compounds that follow.
1. CS(=O)(=O)NC[C@]12COC[C@H]1CN(C(=O)Cc1ccccc1F)C2
2. O=C(c1csc(-c2cccs2)n1)N1CCCC1Cn1cccn1 (stereo not drawn)
3. O=C(CCCOc1ccc(F)cc1F)N1CCCC1Cn1cccn1 (stereo not drawn)
4. CN(CCN1CCCCCC1)C(=O)c1cc(CN2CCC(O)CC2)on1
5. O=C(CCc1ccccc1)C1CCCN(C(=O)c2ncc(F)cc2F)C1 (stereo not drawn)

Reply:
1. -232
2. 6.17
3. 16.1
4. 15
5. 10

I have 2 compounds here; please give me Percent Effect for each one.
1. CC(=O)N1C[C@H](NC(=O)c2cscn2)[C@@H]2OCCC[C@@H]21
2. Cc1occc1C(=O)N1CCC[C@]2(C[C@@H](OCc3ccncc3)CO2)C1

Reply:
10.3
22.5

Each compound below has a recorded value; state its Percent Effect.
1. CCOc1ccc(-n2nnc(C(=O)O)c2-c2ccncc2)cc1
2. CC(C)N1CCC(NCc2cccnc2N(C)Cc2ccccc2)CC1
3. O=C(C1=CCCC1)N1C[C@@H]2COC[C@]2(COc2cccnc2)C1
4. Cc1ccc(-c2cc(C(=O)NC(C)C(=O)N3CCCCC3)on2)cc1 (stereo not drawn)
5. CN(C(=O)c1cccc(C(=O)NCC(F)(F)F)c1)c1ccccc1
6. O=C(CCC1CCCC1)NCCn1nc(C2CCNC2)c2cccnc21 (stereo not drawn)
7. CCCn1[nH]cc/c1=N\C(=O)CN1CCc2c(nc(C(C)C)n2C)C1
8. CC(C)Cc1noc(CN2CCN(CCO)CC2)n1

Reply:
[18.2, 6.17, -2.56, 10.4, -8.64, 6.41, 23.5, 9.76]

====

Biological target: Proteasome subunit beta (Trypanosoma cruzi)
Experiment: Trypanosoma cruzi proteasome chymotrypsin-like activity (TcProtChymo) assay. Further: in the data most compounds retested in dose-response had high values.
Format: functional
Parameters: scale not given: direction of the effect not stated beside the values
Settings: 9.37 µM
Parameter measured: Percent Effect (%)
Answers are plain numbers, in %.

These solved cases illustrate the format of a correct answer.
1. CCCc1noc(CN2CCCC2c2ccsc2)n1 (stereo not drawn) | 3.19
2. CCOc1ccccc1C(CC(=O)Nc1ccccc1F)NC(C)=O (stereo not drawn) | -4.18

Parameters: items (list). Returns: Percent Effect for each item.
1. CNS(=O)(=O)c1ccc(C(=O)N2CCCC2c2cnn(C)c2)o1 (stereo not drawn)
2. CCCNC(=O)CN1CCC(C(=O)Nc2cnn(CC)c2)CC1
3. CN(Cc1ccco1)[C@@H]1CN(Cc2ccco2)[C@@H]2CCCO[C@H]12
4. CNC(=O)c1cc2c(nc1N(C)C)CCN(S(=O)(=O)C1CC1)CC2
5. Cc1csc(C2CCCN(C(=O)c3cc(Cl)c[nH]3)C2)n1 (stereo not drawn)
6. CC(C)c1nc2c(n1C)CCN(Cc1nc(-c3ccsc3)no1)C2
7. CCn1ccnc1CN1CCN(C(C)C(=O)N2CCC(C)CC2)CC1 (stereo not drawn)
8. COCCC(=O)N1CCN(C)c2ncccc2C1

Reply:
[-0.761, 3.98, 13.5, 8.7, 3.96, 10.1, 15.4, 3.83]

I'm hoping you can list Percent Effect for every compound here, please.
1. CCN(C(=O)COC)C(c1cccnc1)c1ccc2c(c1)CCO2 (stereo not drawn)
2. Cc1nnc(N2CCC(CS(N)(=O)=O)CC2)c(C#N)c1C
3. COCCCNC(=O)NCc1ccc(C)cc1
4. CN(C)S(=O)(=O)c1ccc(CN2CCCC2CO)o1 (stereo not drawn)
5. COc1ccc(Br)c(C(=O)NCC2CCN(S(=O)(=O)C3CC3)CC2)c1
6. CC(=O)N1CCCC1c1ccc(-c2c(C)noc2C)cn1 (stereo not drawn)

Reply:
1. 19.8
2. 16.1
3. 13.2
4. -3.3
5. 19.5
6. 4.52

Record Percent Effect for all entries; do not skip any.
1. Cc1nccn1C1CCCN(C(=O)c2cc3ccccc3[nH]2)C1 (stereo not drawn)
2. CNC(=O)C1Cn2ccnc2C2(CCN(CCF)CC2)O1 (stereo not drawn)
3. CCc1nnc(Nc2cccc(C3CCN(CCO)CC3)n2)s1
4. OC[C@H]1CC[C@]2(CC1)CN(Cc1ccccn1)Cc1ccccc1O2
5. O=C1CC(c2ccccc2)c2snc(C(=O)O)c2N1 (stereo not drawn)
6. CCS(=O)(=O)N1C[C@H]2C[C@H](C(=O)N(C)C)[C@@H](C1)O2
7. Cn1cc(CN2CC[C@H]3C[C@H](c4nc(C5CC5)cs4)O[C@@H]3C2)cn1

Reply:
1: -4.83; 2: 13.1; 3: 14; 4: 1.25; 5: 29.4; 6: 5.55; 7: 10.8

====

I'd be grateful if you could share measured Percent Effect for these entries.
Target: Tyrosyl-tRNA synthetase, putative (Trypanosoma cruzi (strain CL Brener)) (UniProt Q4DSP6)
Assay: Trypanosoma cruzi tyrosyl tRNA synthetase (TcYRS) SOP
Format: functional
Parameters: scale not given: direction of the effect not stated beside the values
Conditions: 30 µM
Give bare numbers, in %.

Some compounds with known Percent Effect results, for comparison:
1) Cc1cc(C)cc(OCCC(=O)N2CCOCC2c2ncon2)c1 (stereo not drawn) | 11
2) CC1CCc2nc(O)c(C(=O)NCc3cccc(F)c3)cc2C1 (stereo not drawn) | 0

Please look at the following compound next.
Ask: Which Percent Effect value belongs to CCS(=O)(=O)c1ccccc1N1CCC(NC(=O)NC2CCCC2)CC1 ?
Reply: 13.4

====

Exercise: for every item that follows, state its recorded Percent Effect.
Target: Proteasome subunit beta (Trypanosoma cruzi)
Test: Trypanosoma cruzi proteasome chymotrypsin-like activity (TcProtChymo) assay. Further: in the data most compounds retested in dose-response had high values.
Assay type: functional
Design: scale not given: direction of the effect not stated beside the values
Settings: 9.37 µM
One number for each entry, in %.

Examples from the recorded data:
1. O=S(=O)(NCc1ccccc1Cn1cncn1)C1CCCC1 | 10.1
2. O=C(c1ccno1)N1CC[C@@H]2O[C@@H](COCCN3CCCC3)CC[C@@H]21 | 21.2
3. CC(C)Oc1ncccc1CNC(=O)N1CCC1c1ccccc1 (stereo unspecified) | 9.69

Provide Percent Effect for all items below, preserving their order.
1. CSCC(=O)N1CCC2(CC1)c1ccccc1CC2O (stereo unspecified)
2. Cc1nc(C)n(CC2CCCCN2Cc2nnc(C3CC3)o2)n1 (stereo unspecified)
3. CN(CC1(O)CCCN(CCC2CCCCC2)C1=O)C1CCOCC1 (stereo unspecified)
4. O=C(c1cc(F)ccc1F)C1CCN(C(=O)c2ccccn2)CC1

Reply:
[18.5, 1.69, 6.8, 17.1]

# per-item lookup of Percent Effect; items listed below
1. COCC1c2nnn(CC3CC3)c2CCN1C(=O)Cc1cccs1 (stereo unspecified)
2. CC(=O)NCC(=O)N1Cc2nccn2CC(CN2CCCC2)C1 (stereo unspecified)

Reply:
[17.2, 19.6]

Need Percent Effect for each of these molecules.
1. COCCN(Cc1nc2c(cnn2C)c(=O)[nH]1)Cc1ccco1
2. CC(C)c1nc(CN(C)C2CCN(CC(F)(F)F)C2)no1 (stereo unspecified)
3. O=C1OC2(CCNCC2)CN1CC(=O)N1CCCC1c1ccco1 (stereo unspecified)
4. CC(=O)Nc1nc(CN2CCOC(Cn3cc(C)cn3)C2)cs1 (stereo unspecified)
5. CCc1nccc(CN2CCCC(c3nn(C)c(=O)n3CC)C2)n1 (stereo unspecified)
6. Cc1noc(Cl)c1CC(=O)N1CCCC(n2cccn2)C1 (stereo unspecified)

Reply:
1: 12.6; 2: 6.57; 3: 19.8; 4: 19.5; 5: -1.63; 6: 0.592

Hi team, please reply with Percent Effect for each item in this list.
1. Cc1cc(C)cc(OCCC(=O)N2CCCC(n3cncn3)C2)c1 (stereo unspecified)
2. CN(C(=O)c1cccc(C(=O)NS(C)(=O)=O)c1)c1ccccc1
3. CC(C)(C)c1nc(CN2CCCC2CCc2ccccc2)no1 (stereo unspecified)
4. CC(OCC1CC1)C(=O)N1CCCN(Cc2cnn(C)c2)CC1 (stereo unspecified)
5. O=C(Cc1ccc2c(c1)OCCO2)N1CCCC(n2ccnc2)C1 (stereo unspecified)
6. Cc1oc(C(=O)O)cc1S(=O)(=O)Nc1cc(Cl)ccc1F

Reply:
[-5.21, 16.5, -5.91, 21.6, 4.77, -6.59]
